From: patent US9309222B2

# tested system: human RORγt LBD (Homo sapiens, UniProt P51449)
# Construct: expressed in transfected cells
# Sequence (P51449 258-518): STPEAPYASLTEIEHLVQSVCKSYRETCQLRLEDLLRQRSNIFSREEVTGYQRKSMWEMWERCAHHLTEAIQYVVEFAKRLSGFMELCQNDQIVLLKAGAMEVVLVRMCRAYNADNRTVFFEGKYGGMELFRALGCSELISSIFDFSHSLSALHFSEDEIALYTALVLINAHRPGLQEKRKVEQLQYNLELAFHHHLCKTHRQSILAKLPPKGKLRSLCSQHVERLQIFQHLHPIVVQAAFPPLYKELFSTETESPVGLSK
# assay overview: RORγt reporter assay (GAL4-RORγt LBD luciferase in HEK293T cells)
# Assay type: cell-based
# recorded conditions: HEK-293T, read-out: RORγt reporter Assay, % inhibition @ 6 μM, HEK293T cells, 6 μM compound
measured property: inhibition at 6 µM (%)

1) Cn1cncc1C(O)(c1ccc2nc(C(F)(F)F)c(-c3ccccc3)c(C(F)(F)F)c2c1)c1ccccn1 (racemic) [Example 185a]    100
2) Cn1cncc1C(O)(c1ccc2nc(Cl)c(-c3ccccc3)c(Cl)c2c1)c1cnccn1 (stereo not shown)    91
3) Cn1cncc1C(O)(c1ccc(Cl)cc1)c1ccc2nc(Cl)c(-c3cccc(Cl)c3)c(Cl)c2c1 (stereo not shown)    73
4) OC(c1cccnc1)(c1ccc2nc(Cl)c(-c3ccccc3)c(Cl)c2c1)c1ccccn1 (stereo not shown)    100
5) CC(C)(C)OC(=O)N1CCC(C(O)(c2cccnc2)c2ccc3nc(Cl)c(-c4ccccc4)c(Cl)c3c2)CC1 (stereo not shown)    97
6) CSc1ncc(C(O)(c2ccc(Cl)cc2)c2ccc3nc(Cl)c(-c4ccccc4)c(Cl)c3c2)n1C (stereo not shown)    93
7) Cn1cncc1C(O)(c1ccncc1)c1ccc2nc(N3CCOCC3)c(-c3ccccc3)c(Cl)c2c1 (stereo not shown)    104
8) Cn1cncc1C(O)(c1ccc(Cl)cc1)c1ccc2nc(Cl)c(-c3ccccc3)c(Cl)c2c1F (stereo not shown)    87
9) Cn1nncc1C(O)(c1ccc(Cl)cc1)c1ccc2nc(Cl)c(-c3ccccc3)c(Cl)c2c1 (stereo not shown)    102
10) Cc1cc(C(O)(c2ccc(Cl)cc2)c2ccc3nc(N(C)C)c(-c4ccccc4)c(Cl)c3c2)on1 (stereo not shown)    96
